Kindly state GI50 for each of the entries shown.
# Test system: LOX IMVI
# method.summary: NCI tumour cell line growth inhibition, 48 h
Activity calls are given as the source filed them. Rule as the data show it: active = GI50 up to about 1.1 µM and inactive = higher.

Could you tell me which GI50 is on file for CSC1=Nc2ccccc2-c2nc(-c3ccccc3)cc(-c3ccccc3)c2C1 ?
23.2 µM (inactive)

Also check C=CCNC(=O)N(CCC)CCCC(NC(C)=O)C(=O)NCc1ccccc1 (centres undefined)
> 100 µM (inactive)

Item: Cc1c(OC(C)C(=O)O)ccc2c(-c3ccccc3)cc(=O)oc12 (centres undefined)
> 100 µM (inactive)

How about this compound: O=c1c2ccccc2c2ccccc2c(=O)n1Cc1ccc2c(c1)OCO2
40 µM (inactive)

Okay, and C[C@H]1C(OCCOC2O[C@@H]3O[C@@]4(C)CC[C@H]5[C@H](C)CCC([C@H]2C)[C@@]35O4)O[C@@H]2O[C@@]3(C)CC[C@H]4[C@H](C)CCC1[C@@]24O3 (some centres undefined) ?
23.7 µM (inactive)

Below is a list of compounds. For each, state its recorded GI50.
1. O=C(O)C1C2CC3CC2CC31 (centres undefined)
2. CCc1c(C)c(C#N)c(=S)n(C2OC(COC(C)=O)C(OC(C)=O)C(OC(C)=O)C2OC(C)=O)c1C (centres undefined)
3. CCC(=O)C(C)C1=Nc2nnc(CCCCCCCc3nnc4n3C(=O)C(C(C)C(=O)CC)=N4)n2C1=O (centres undefined)
4. CC1(Br)S(=O)(=O)OCCOS1(=O)=O

1. > 100 µM (inactive)
2. > 100 µM (inactive)
3. > 100 µM (inactive)
4. > 100 µM (inactive)

###

# System: A498
# method.summary: NCI tumour cell line growth inhibition, 48 h
Active and inactive are the calls of the source. Rule as the data show it: active = GI50 up to about 1.1 µM and inactive = higher.
Entry note: the call must match one of active, inactive

Consider the following illustrative entries.
What did the test return for CCCNC1=Nc2ccccc2NC(C)C1 (stereo not given) ?
inactive

Try the molecule Cn1c(=O)n(-c2c3ccccc3c(Cl)c3ccccc23)n(C(C)(C)C)c1=O
inactive

New cases:
What call does the record list for CCOC(=O)c1cn(Cc2ccccc2)c(=O)n1Cc1ccccc1 ?
inactive

Next molecule up: O=C1C2=Cc3ccccc3OC2(O)Oc2cc3ccccc3cc21 (stereo not given)
inactive

Okay, and Cc1cc2nc(-c3c(F)cccc3F)n(Cc3c(F)cccc3F)c2cc1C ?
inactive

Cool, now O=C(C(=C(I)I)c1ccccc1)c1ccccc1
inactive

###

Kindly supply the reported GI50 values for the records listed here.
# System: SK-MEL-5
# method.summary: NCI tumour cell line growth inhibition, 48 h
The source made the active and inactive calls. Rule as the data show it: active = GI50 up to about 1.1 µM and inactive = higher.

Observe how each entry below is paired with its result.
Given the compound Cc1c(N2C(=O)C(Cl)C2/C=C/c2ccccc2)c(=O)n(-c2ccccc2)n1C (stereo unspecified) , what is its reported GI50?
15.8 µM (inactive)

Likewise for CCOC(=O)CCC(NC(=O)OCc1ccccc1)C(=O)NNC(=O)OC(C)(C)C (stereo unspecified) ?
> 100 µM (inactive)

Cc1ccc(S(=O)(=O)N2CCCC2C(=O)O[C@H]2CC[C@H]3CC=C[C@H]32)cc1 (stereo partly specified) ?
19.1 µM (inactive)

Field entry: CCN1CCCC(C#N)(c2ccccc2)CC1 (stereo unspecified)
> 100 µM (inactive)

Check O=C1NC(NCc2ccc(F)cc2)=N/C1=C\c1ccccc1Cl too.
13.4 µM (inactive)

Would you mind giving GI50 for every compound in the list below?
1. C#CCN(Cc1ccc2nc(-c3ccccc3)c(Cl)nc2c1)c1ccc(F)cc1
2. CCOc1ccccc1/N=C\c1c2ccccc2cc2ccccc12

1. 23.1 µM (inactive)
2. 25.6 µM (inactive)

Origin of the recorded values: ChEMBL document CHEMBL1201862
